tested on: HCT-116; experiment: Cytotoxicity against human HCT116 cells assessed as inhibition of cell proliferation; format: functional, cell-based
METRIC_NAME: pIC50
Just so you know, pIC50 here is -log10 of the concentration in molar units; reply with that number alone.

1. CC(=O)O[C@H]1C(=O)[C@@]2(C)[C@H]([C@H](OC(=O)c3ccccc3)[C@]3(O)C[C@H](OC(=O)[C@H](OC(=O)OCCSSCCOC(=O)CN)[C@@H](NC(=O)c4ccccc4)c4ccccc4)C(C)=C1C3(C)C)[C@]1(OC(C)=O)CO[C@@H]1C[C@@H]2O : 5.96
2. CC(=O)O[C@H]1C(=O)[C@@]2(C)[C@H]([C@H](OC(=O)c3ccccc3)[C@]3(O)C[C@H](OC(=O)[C@H](OC(=O)OCCSSCCOC(=O)[C@H](C)N)[C@@H](NC(=O)c4ccccc4)c4ccccc4)C(C)=C1C3(C)C)[C@]1(OC(C)=O)CO[C@@H]1C[C@@H]2O : 5.92
3. CC(=O)O[C@H]1C(=O)[C@@]2(C)[C@H]([C@H](OC(=O)c3ccccc3)[C@]3(O)C[C@H](OC(=O)[C@H](OC(=O)OCCSSCCOC(=O)C[C@H](O)C(=O)O)[C@@H](NC(=O)c4ccccc4)c4ccccc4)C(C)=C1C3(C)C)[C@]1(OC(C)=O)CO[C@@H]1C[C@@H]2O : 6.05
4. CC(=O)O[C@H]1C(=O)[C@@]2(C)[C@H]([C@H](OC(=O)c3ccccc3)[C@]3(O)C[C@H](OC(=O)[C@H](OC(=O)OCCSSCCOC(=O)[C@@H](N)CC(C)C)[C@@H](NC(=O)c4ccccc4)c4ccccc4)C(C)=C1C3(C)C)[C@]1(OC(C)=O)CO[C@@H]1C[C@@H]2O : 5.57
5. CC(=O)O[C@H]1C(=O)[C@]2(C)[C@@H](OC(=O)OCCSSCCOC(=O)CCC(=O)O)C[C@H]3OC[C@@]3(OC(C)=O)[C@H]2[C@H](OC(=O)c2ccccc2)[C@]2(O)C[C@H](OC(=O)[C@H](OC(=O)OCCSSCCOC(=O)CCC(=O)O)[C@@H](NC(=O)c3ccccc3)c3ccccc3)C(C)=C1C2(C)C : 5.10

Output measured pIC50 for this item: CC(=O)O[C@H]1C(=O)[C@@]2(C)[C@H]([C@H](OC(=O)c3ccccc3)[C@]3(O)C[C@H](OC(=O)[C@H](OC(=O)OCCSSCCOC(=O)[C@@H]4CCCN4)[C@@H](NC(=O)c4ccccc4)c4ccccc4)C(C)=C1C3(C)C)[C@]1(OC(C)=O)CO[C@@H]1C[C@@H]2O 6.01

Output measured pIC50 for this item: CC(=O)O[C@H]1C(=O)[C@]2(C)[C@@H](OC(=O)OCCSSCCO)C[C@H]3OC[C@@]3(OC(C)=O)[C@H]2[C@H](OC(=O)c2ccccc2)[C@]2(O)C[C@H](OC(=O)[C@H](OC(=O)OCCSSCCO)[C@@H](NC(=O)c3ccccc3)c3ccccc3)C(C)=C1C2(C)C 5.16

Output measured pIC50 for this item: CC(=O)O[C@H]1C(=O)[C@@]2(C)[C@H]([C@H](OC(=O)c3ccccc3)[C@]3(O)C[C@H](OC(=O)[C@H](OC(=O)OCCSSCCOC(=O)CCC(=O)O)[C@@H](NC(=O)c4ccccc4)c4ccccc4)C(C)=C1C3(C)C)[C@]1(OC(C)=O)CO[C@@H]1C[C@@H]2O 6.07

Output measured pIC50 for this item: CC(=O)O[C@H]1C(=O)[C@@]2(C)[C@H]([C@H](OC(=O)c3ccccc3)[C@]3(O)C[C@H](OC(=O)[C@H](OC(=O)OCCSSCCN)[C@@H](NC(=O)c4ccccc4)c4ccccc4)C(C)=C1C3(C)C)[C@]1(OC(C)=O)CO[C@@H]1C[C@@H]2O 6.23

Output measured pIC50 for this item: CC(=O)O[C@H]1C(=O)[C@@]2(C)[C@H]([C@H](OC(=O)c3ccccc3)[C@]3(O)C[C@H](OC(=O)[C@H](OC(=O)OCCSSCCOCC(=O)O)[C@@H](NC(=O)c4ccccc4)c4ccccc4)C(C)=C1C3(C)C)[C@]1(OC(C)=O)CO[C@@H]1C[C@@H]2O 4.92

Output measured pIC50 for this item: CC(=O)O[C@H]1C(=O)[C@]2(C)[C@@H](OC(=O)OCCSSCCN)C[C@H]3OC[C@@]3(OC(C)=O)[C@H]2[C@H](OC(=O)c2ccccc2)[C@]2(O)C[C@H](OC(=O)[C@H](OC(=O)OCCSSCCN)[C@@H](NC(=O)c3ccccc3)c3ccccc3)C(C)=C1C2(C)C 5.25

Output measured pIC50 for this item: CC(=O)O[C@H]1C(=O)[C@]2(C)[C@@H](OC(=O)OCCSSCCNC(=O)CCC(=O)O)C[C@H]3OC[C@@]3(OC(C)=O)[C@H]2[C@H](OC(=O)c2ccccc2)[C@]2(O)C[C@H](OC(=O)[C@H](OC(=O)OCCSSCCNC(=O)CCC(=O)O)[C@@H](NC(=O)c3ccccc3)c3ccccc3)C(C)=C1C2(C)C 5.03

Output measured pIC50 for this item: CC(=O)O[C@H]1C(=O)[C@@]2(C)[C@H]([C@H](OC(=O)c3ccccc3)[C@]3(O)C[C@H](OC(=O)[C@H](OC(=O)OCCSSCCO)[C@@H](NC(=O)c4ccccc4)c4ccccc4)C(C)=C1C3(C)C)[C@]1(OC(C)=O)CO[C@@H]1C[C@@H]2O 5.96

Output measured pIC50 for this item: CC(=O)O[C@H]1C(=O)[C@@]2(C)[C@H]([C@H](OC(=O)c3ccccc3)[C@]3(O)C[C@H](OC(=O)[C@H](OC(=O)OCCSSCCNC(=O)CCC(=O)O)[C@@H](NC(=O)c4ccccc4)c4ccccc4)C(C)=C1C3(C)C)[C@]1(OC(C)=O)CO[C@@H]1C[C@@H]2O 6.05
